conditions: 303.15 K; 101.33 kPa; Liquid
readout_name: viscosity (mPa·s)
Give the value in mPa·s but do not write mPa·s after it.

Task: Given the entry COC(C)=O [methyl ethanoate] , report its measured viscosity.
Result: 0.343

Task: Thanks! And CCCCOC(C)=O [butyl ethanoate] ?
Result: 0.6453

Task: // same read-out, input: `ClC(Cl)Cl`
Result: 0.51

Task: Now this one: `ClC(Cl)C(Cl)Cl`
Result: 1.457

Task: Lookup `CCCCCCBr`
Result: 0.903

Task: Try this molecule next: `ClC(Cl)(Cl)Cl`
Result: 0.8441

Task: Now this one: `CCCCCCCl`
Result: 0.6544

Task: Same read-out for CCOC(C)=O [ethyl acetate] ?
Result: 0.4043

Task: Okay, and CCCCCOC(C)=O [pentyl ethanoate] ?
Result: 0.7573

Task: // same read-out, input: C1CCOC1 [tetrahydrofuran]
Result: 0.4383
